Tested on: SF-268 CNS
method_description: NCI tumour cell line growth inhibition, 48 h
# TGI listing for each entry below

Some solved cases for reference:
-- ask Record request: TGI value, item `COC(=O)[C@@]1(C)C(=O)CC[C@@H]1C=O`
-- reply > 100 µM

-- ask Record request: TGI value, item `CCc1n[nH]c(=O)n1/N=C(\C)c1ccc([N+](=O)[O-])cc1`
-- reply > 100 µM

-- ask Record request: TGI value, item `O=c1cnnc(N/N=C/c2ccccc2O)[nH]1`
-- reply > 87.3 µM

-- ask Record request: TGI value, item C=C1C(=O)O[C@H]2[C@H](OC(C)=O)[C@@H](C)CCCC3(C)OC3CCC3(CO3)[C@H](O)C[C@@H]12 (stereo partly specified)
-- reply 40.4 µM

-- ask Record request: TGI value, item `C#Cc1cccc(Nc2ncnc3ccc(OCCCCNCCS(C)(=O)=O)cc23)c1`
-- reply > 23.7 µM

Here is the next item to consider.
-- ask Record request: TGI value, item `OCC[N+]12CCCN1CCC2`
-- reply > 100 µM

----------
Tested on: UO-31 renal
method_description: NCI tumour cell line growth inhibition, 48 h
# TGI listing for each entry below

Some solved cases for reference:
-- ask Record request: TGI value, item `Cn1c2c(c3ccccc31)CCN(CCCCN1CCN(c3ccccc3)CC1)C2=O`
-- reply > 80.9 µM

-- ask Record request: TGI value, item `CCOC(=O)c1ccc(C(=O)n2ccnc2)[nH]1`
-- reply > 100 µM

-- ask Record request: TGI value, item `c1cc2nnsc2s1`
-- reply > 100 µM

-- ask Record request: TGI value, item O=C(NC(Cc1ccc(Br)cc1)C(=O)O)c1ccc(I)cc1 (stereo unspecified)
-- reply > 100 µM

Further cases:
-- ask Record request: TGI value, item COC(=O)c1ccccc1CC1Cc2cc3c(cc2C1=O)CCC3 (stereo unspecified)
-- reply 86.3 µM

-- ask Record request: TGI value, item `COc1cccc(/C=C/C(=O)c2sc(C(N)=S)nc2C)c1O`
-- reply > 100 µM

-- ask Record request: TGI value, item `N#Cc1ccc(-c2nc3c(N)nc(-c4ccccc4)nc3o2)cc1`
-- reply > 100 µM

-- ask Record request: TGI value, item `Clc1cc(Cl)c2cc3cccc[n+]3cc2c1Cl`
-- reply 28.4 µM

-- ask Record request: TGI value, item `CCn1c2ccccc2c(=O)c2c(OC)ccc(OC)c21`
-- reply > 89.9 µM

-- ask Record request: TGI value, item `COC(=O)c1ccc(/C=C(\c2ccc([N+](=O)[O-])o2)S(=O)(=O)c2ccc(NC(C)=O)cc2)o1`
-- reply 18.2 µM

-- ask Record request: TGI value, item `C=CCC1(Sc2ccccn2)Sc2ccc3ccccc3c2-c2c(ccc3ccccc23)S1`
-- reply > 100 µM

----------
# TGI listing for each entry below
System: UACC-62 melanoma
method_description: NCI tumour cell line growth inhibition, 48 h
Where a SMILES comes first, the peptide text is derived from it. [ ]: non-standard residue; d: D form. The star is where a group is joined. ξ: configuration not given here. ξF = NC(Cc1ccccc1)C(=O)O; Cbz = O=C(OCc1ccccc1)*; Aib = CC(C)(N)C(=O)O
Write the answer as a number in µM, unit excluded.

-- ask I'm curious: which TGI was measured for `O=C(COc1cccc(/C=C2\CSc3ccc(Cl)cc3C2=O)c1)c1ccc(Cl)cc1` tested on UACC-62 melanoma?
-- reply 22.5

-- ask I'm curious: which TGI was measured for `O=c1oc2ccccc2c(O)c1C(c1cnc2ccccc2c1)c1c(O)c2ccccc2oc1=O` tested on UACC-62 melanoma?
-- reply 35.4

Further cases:
-- ask I'm curious: which TGI was measured for `CC(C)(c1ccccc1)c1cc(O)c(C(C)(C)c2ccccc2)cc1O` tested on UACC-62 melanoma?
-- reply 4.93

-- ask I'm curious: which TGI was measured for `O=Nc1c(-c2c(O)[nH]c3cc(Br)ccc23)[nH]c2ccccc12` tested on UACC-62 melanoma?
-- reply 2.95

-- ask I'm curious: which TGI was measured for `O=c1cnnc(N/N=C/c2ccccc2O)[nH]1` tested on UACC-62 melanoma?
-- reply 7.88

-- ask I'm curious: which TGI was measured for `COC(=O)[C@]12CC[C@@H](C)[C@H](C)[C@@H]1C1=CC[C@@H]3[C@@]4(C)C[C@@H](OC(=O)/C=C/c5ccccc5)[C@H](O)[C@@](C)(CO)[C@@H]4[C@H](O)C[C@@]3(C)[C@]1(C)CC2` tested on UACC-62 melanoma?
-- reply 11.4

-- ask I'm curious: which TGI was measured for CCOC(=O)CNC(=O)C(Cc1ccccc1)NC(=O)C(C)(C)NC(=O)OCc1ccccc1 (stereo not given) (Cbz-[Aib]-[ξF]-Gly-OEt) tested on UACC-62 melanoma?
-- reply 40.9

-- ask I'm curious: which TGI was measured for COC(=O)c1ccccc1CC1Cc2cc3c(cc2C1=O)CCC3 (stereo not given) tested on UACC-62 melanoma?
-- reply 69.6

-- ask I'm curious: which TGI was measured for `COc1ccc(NC2=C(I)C(=O)c3ncccc3C2=O)cc1` tested on UACC-62 melanoma?
-- reply 3.4

----------
Test system: ACHN renal
method_description: NCI tumour cell line growth inhibition, 48 h
# TGI listing for each entry below

-- ask Record request: TGI value, item `CC(C)(C)c1ccc2c(c1)C#Cc1cc(C(C)(C)C)ccc1OCCCO2`
-- reply > 100 µM

-- ask Record request: TGI value, item `COc1cc([N+](=O)[O-])c(OC)cc1-c1nc2sc(C)cn2c1/C(N)=N/C(=N)N`
-- reply > 100 µM

-- ask Record request: TGI value, item `C[C@@H](NS(=O)(=O)c1ccc(NC(=O)c2ccccc2)cc1)C(=O)O`
-- reply > 100 µM

-- ask Record request: TGI value, item `N#CC(C#N)=C/C=C/c1c(Cl)cccc1Cl`
-- reply 3.19 µM

-- ask Record request: TGI value, item CC(C)(C)C1CCC2c3c([nH]c4ccccc34)C3C(=O)N(c4ccccc4Cl)C(=O)C3C2C1 (stereo unspecified)
-- reply 70.2 µM

-- ask Record request: TGI value, item CCOc1cn(C2OC(CO)C(O)C2O)c(=O)[nH]c1=O (stereo unspecified)
-- reply > 100 µM

Further cases:
-- ask Record request: TGI value, item CC(=O)NC(Cc1ccccc1)NC(=O)O (stereo unspecified)
-- reply > 100 µM

-- ask Record request: TGI value, item CCOC(=O)C1=C(C)NC(=O)NC1CN1C(=O)c2ccccc2C1=O (stereo unspecified)
-- reply > 100 µM

-- ask Record request: TGI value, item `COc1cccc(/C=C/C(=O)c2sc(C(N)=S)nc2C)c1O`
-- reply > 100 µM

-- ask Record request: TGI value, item CNC1Cc2c[nH]c3cccc(c23)C12C=C(C)C(=O)O2 (stereo unspecified)
-- reply > 100 µM

-- ask Record request: TGI value, item `O=C1C=CC(=C(c2ccccc2)c2ccc(O)cc2)C=C1`
-- reply 39.2 µM

----------
# TGI listing for each entry below
System: K-562 leukemia
method_description: NCI tumour cell line growth inhibition, 48 h

Some solved cases for reference:
-- ask Record request: TGI value, item `C/C=C(/C)C(=O)O[C@H]1[C@H]2[C@@H]([C@@H](OC(C)=O)[C@H](C)C(=O)[C@@]34C[C@@H](C)C(=O)[C@]3(/C=C(\C)[C@H]1OC(C)=O)O4)C2(C)C`
-- reply 8.43 µM

-- ask Record request: TGI value, item `COc1ccc2c(C)c(Oc3c(Cl)c(Cl)c(O)c(C#N)c3C#N)oc2c1`
-- reply > 100 µM

-- ask Record request: TGI value, item `O=C(O)C1(Cc2ccccc2)Cc2cc3c(cc2C1)CCC3`
-- reply > 100 µM

-- ask Record request: TGI value, item CC(=O)Nc1ccc(C(=O)NN2C(=O)CSC2c2ccc(O)cc2)cc1 (stereo not given)
-- reply > 100 µM

-- ask Record request: TGI value, item `COC(=O)c1ccc(/C=C(\c2ccc([N+](=O)[O-])o2)S(=O)(=O)c2ccc(NC(C)=O)cc2)o1`
-- reply 18.1 µM

-- ask Record request: TGI value, item `COc1ccc2nc3c([N+](=O)[O-])ccc4c3c(c2c1)NCCN4CCN(C)C`
-- reply > 10 µM

-- ask Record request: TGI value, item COc1ccc(N2C(=O)C3c4[nH]c5ccccc5c4C4CC(C)(C)CC(C)(C)C4C3C2=O)cc1 (stereo not given)
-- reply > 100 µM

-- ask Record request: TGI value, item COc1ccc(C2ON(c3ccccc3)CC=C2C)cc1 (stereo not given)
-- reply > 100 µM

-- ask Record request: TGI value, item O=c1[nH]c(N/N=C\C(=N/Nc2nc3ccccc3c(=O)[nH]2)C(O)C(O)C(O)CO)nc2ccccc12 (stereo not given)
-- reply > 100 µM

-- ask Record request: TGI value, item `CSc1nc2nn(Cc3ccccc3)cc2c(=O)[nH]1`
-- reply > 100 µM

Further cases:
-- ask Record request: TGI value, item `O=C1Cc2nc(CO)c(CO)c(CO)c2CO1`
-- reply > 100 µM

-- ask Record request: TGI value, item `COc1cc2oc(-c3ccccc3)cc(=O)c2c(O)c1C`
-- reply > 100 µM

-- ask Record request: TGI value, item `N#Cc1ccc(-c2nc3c(N)nc(-c4ccccc4)nc3o2)cc1`
-- reply > 100 µM

-- ask Record request: TGI value, item `CC(C)(C)C(=O)Nc1cccc2oc(-c3ccccc3)cc12`
-- reply > 100 µM

-- ask Record request: TGI value, item `CCCCN1C(=O)c2c(Br)sc(Br)c2C1=O`
-- reply > 100 µM

-- ask Record request: TGI value, item CCOC(=O)C(NC(C)=O)(Nc1ccc(S(N)(=O)=O)cc1)C(F)(F)F (stereo not given)
-- reply > 100 µM
